Attribution: PubChem BioAssay AID873

biological target: Kallikrein-5 (Homo sapiens) (UniProt Q9Y337); test: inhibition of kallikrein 5 (hK5) activity – biochemical, 1536-well, primary screen (AID 873); conditions: recombinant hK5, fluorogenic AMC substrate cleavage; at 5 µM;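 note: 0% = enzyme controls without compound and 100% = no-enzyme blanks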
Sequence (Q9Y337 67-293 limits assumed): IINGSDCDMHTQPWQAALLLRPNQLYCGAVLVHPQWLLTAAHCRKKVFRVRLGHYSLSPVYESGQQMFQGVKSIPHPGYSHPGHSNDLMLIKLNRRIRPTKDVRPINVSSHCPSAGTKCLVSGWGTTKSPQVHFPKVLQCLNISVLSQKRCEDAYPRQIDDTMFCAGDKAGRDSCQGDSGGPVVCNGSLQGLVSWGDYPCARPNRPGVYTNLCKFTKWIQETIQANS
Hit rate of the full screen: of about 210,000 compounds, about 1,300 (0.62%) were called active.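 Rule for the calls: active = inhibition of 40% or more; inactive = the rest.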 The sample as a whole holds a higher share of actives than the screen did.
API: response.call in active, inactive

> print(dat)
                                   compound  label.class
1  O=C(NN1C(=O)C2C3C=CC(C4CC34)C2C1=O)c1ccc(Cl)cc1 (configuration not stated)     inactive
2  C/C(=N/NC(=O)CN1CCN(S(=O)(=O)c2ccc(Br)cc2)CC1)c1ccncc1     inactive
3    Cc1cccc(NC(=S)NC23CN4CN(CN(C4)C2)C3)c1       active
4  CC12CN(NC(=O)c3ccc(Cl)cc3)C3(C#N)CC1CCC23C (configuration not stated)       active
5           O=C(c1cnn2ccccc12)N1CCc2ccccc21       active
6  CCS(=O)(=O)c1cc([N+](=O)[O-])c(Sc2ccccc2N)s1     inactive

Status in this test for Cc1nc2nc(SCC(=O)c3ccccc3)[nH]c2cc1Br ? inactive

Any idea what this test logged for COc1cccc(NC(=O)c2ccc(S(=O)(=O)N(C)C)cc2)c1 ? active

Lab log entry: COc1cccc(NC(=O)C(C)Oc2ccccc2)c1 (configuration not stated) — outcome as called in the assay? inactive

Hi, sorry to bother you, what did the test record for COc1ccc(-c2noc(CSc3ccc(C)cc3)n2)cc1 ? active

GET /call?item= CC(C)(C)C(=O)NNC(=O)c1ccc(Oc2cc(Cl)cc(Cl)c2)o1 returns the recorded outcome of this test. inactive

Dear all, I need the recorded test outcome for C=CCNC(=S)N/N=C/c1ccc(C)s1 , thank you. inactive

====

# inhibition per entry
biological target: Kallikrein-5 (Homo sapiens); experiment: inhibition of kallikrein 5 (hK5) activity – biochemical, 1536-well, primary screen (AID 873); conditions: recombinant hK5, fluorogenic AMC substrate cleavage; at 5 µM; active compounds read high;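 note: 0% = enzyme controls without compound and 100% = no-enzyme blanks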
About 1,300 (0.62%) of roughly 210,000 compounds were called active. The entries come from a sample that favours actives as a whole.

> print(dat)
                                    compound    observed.result
 1  O=C(CSc1nc2c(cnn2-c2ccc(F)cc2)c(=O)[nH]1)N1CCCCCC1     68.2% (active)
 2      O=C(CNCCC1=CCCCC1)Nc1ccccc1N1CCCCCC1  -0.35% (inactive)
 3  CC(C)C(c1nnnn1C(C)(C)C)N1CCN(Cc2cccnc2)CC1 (stereo not given)   4.44% (inactive)
 4  COc1ccc(NC(=O)C2=NNC(=O)CC2)cc1S(=O)(=O)N1CCCCC1   -2.9% (inactive)
 5  COc1ccccc1-n1cnc2cc(NS(=O)(=O)c3ccccc3)ccc21     53.3% (active)
 6                  Cc1nc(Cl)c2oc3ccccc3c2n1     42.9% (active)
 7              O=C(NC1CCCCC1)c1cc(C2CC2)on1  -1.29% (inactive)
 8       COC(=O)Cn1cc(C(=O)c2cccs2)c2ccccc21     40.6% (active)
 9  CC(C)CNC(=O)C1CCCN(S(=O)(=O)c2ccc(-n3cnnn3)cc2)C1 (stereo not given)   11.1% (inactive)
10  COC(=O)c1ccc(CN2CCC(CO)(Cc3ccc(OC)cc3)CC2)cc1  -3.09% (inactive)

Lab note: measured inhibition of O=[N+]([O-])c1cccc2ncccc12 was -1.14% (inactive)

// inhibition lookup, compound = COC(=O)c1oc2ccc(Br)cc2c1NC(C)=O , result: 41.8% (active)

Entry Cc1ccnc(N2CCCC(C(=O)Nc3cc(F)ccc3C)C2)n1 (stereo not given) ; inhibition = -31.1% (inactive)

Short answer for Cc1nc(N2CCCC2C(=O)O)c2oc3ccccc3c2n1 (stereo not given) : inhibition was -6.49% (inactive)

Sure, the documented inhibition for CCSc1nc(C)nc2c1oc1ccccc12 is 2.97% (inactive)

Please fill in: inhibition reported for Cn1c(=O)c2c(-c3cccc(Br)c3)c(C#N)c(N)nc2n(C)c1=O = 2.05% (inactive)

Per the record, COCCCNC(=O)c1ccc2c(c1)ncn2-c1ccccc1OC has inhibition of -11.7% (inactive)

Form: compound = Cc1[nH]n(-c2ccccc2)c(=O)c1N=Nc1ccccc1C(=O)N1CCCCC1 ; inhibition = 3.28% (inactive)

The recorded inhibition for O=C(Nc1ccccc1-c1nnn(CC(=O)N2CCN(c3ccccc3)CC2)n1)c1cccs1 is 8.06% (inactive)

Cc1cccn2c(CNCC(C)Oc3cccnc3)c(C(=O)N3CCOCC3)nc12 (stereo not given) yielded inhibition of -2.01% (inactive)

Query O=C(NCCOc1ccccc1)c1ccccc1 yields inhibition of -2.43% (inactive)

In plain terms, O=C(O)c1ccccc1-c1ccccc1C(=O)Nc1cccc2ccccc12 has a documented inhibition of 3.53% (inactive)

====

Below, each of the molecules is paired with its reported inhibition value.
target: Kallikrein-5 (Homo sapiens); test: inhibition of kallikrein 5 (hK5) activity – biochemical, 1536-well, primary screen (AID 873); conditions: recombinant hK5, fluorogenic AMC substrate cleavage; at 5 µM; active compounds read high;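 note: 0% = enzyme controls without compound and 100% = no-enzyme blanks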
Out of some 210,000 compounds screened, about 1,300 (0.62%) were called active. Shown is part of a subset that was picked to be rich in actives.
Hi! Could you send only the number? It should be in %, unit omitted.

> print(dat)
                                   molecule  measured.quantity  observed.result
1  O=C(O)Cc1ccc(NC(=O)C2CCCCC2C(=O)O)cc1 (stereo not given)         inhibition             46.5

Consider now this further molecule.
The reported value for O=C(NCc1cccnc1)C(=O)Nc1nc(-c2ccccc2)cs1 in terms of inhibition is -0.27

====

biological target: Kallikrein-5 (Homo sapiens); test: inhibition of kallikrein 5 (hK5) activity – biochemical, 1536-well, primary screen (AID 873); details: recombinant hK5, fluorogenic AMC substrate cleavage; at 5 µM; active compounds read high;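 note: 0% = enzyme controls without compound and 100% = no-enzyme blanks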
Screen size: about 210,000 compounds; about 1,300 (0.62%) were called active. For the sample, actives were picked, then their nearest neighbours and some compounds at random.
Listing: inhibition of selected compounds
Give your result in % as a bare value.

> print(dat)
                                   compound              subject.of.test  observed.result
1              CC1(C)CCSC(/C=C/c2ccccc2)=N1  Kallikrein-5 (Homo sapiens)            -4.94
2  Cc1cc(=O)oc2cc(OCC(=O)Nc3nnc(C4CC4)s3)ccc12  Kallikrein-5 (Homo sapiens)             5.43
3  CC(C)(C)n1nnnc1C(c1cccs1)N(Cc1cccnc1)CC1CCCO1 (stereo not drawn)  Kallikrein-5 (Homo sapiens)               45
4            O=C(Nc1ccccc1-c1ccccc1)c1cccs1  Kallikrein-5 (Homo sapiens)               40

Memo: CCN(CC)c1ccc(/C=N/NC(=O)c2cnccn2)c(O)c1 , reported inhibition: -3.69

Entry CC(C)c1csc(CN2CCC(CO)(Cc3ccccc3)CC2)n1 ; inhibition = 40.6

Value of inhibition reported for the compound Cc1cccc(N(C)C(=O)c2cc3c(=O)[nH]c4ccc(C)cc4c3s2)c1 is 1.34

Reported inhibition ( O=C(O)CCCCCCCCCC[n+]1ccccc1 ) = -3.11

Per the record, CCc1c(C)nc2c(-c3ccccc3)c(C)nn2c1Nc1ccc(NC(C)=O)cc1 has inhibition of -10.1

====

The entries below are paired with their reported inhibition.
molecular target: Kallikrein-5 (Homo sapiens) (UniProt Q9Y337); experiment: inhibition of kallikrein 5 (hK5) activity – biochemical, 1536-well, primary screen (AID 873); conditions: recombinant hK5, fluorogenic AMC substrate cleavage; at 5 µM; active compounds read high;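 note: 0% = enzyme controls without compound and 100% = no-enzyme blanks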
Out of some 210,000 compounds screened, about 1,300 (0.62%) were called active. Shown is part of a subset that was picked to be rich in actives.
Just the number in %, nothing appended.

> print(dat)
                              compound  observed.result
1    COc1cccc(C2Nc3cccc4cccc(c34)N2)c1            -0.21
2          Cn1c2ccc(F)cc2c2nnc(NN)nc21             3.58
3  COc1cc2c(cc1OC)C(/C=C/c1ccco1)=NCC2             4.43

What the record says about Cc1nc(COc2cccc(Cl)c2)sc1C(=O)/C=C/N(C)C : inhibition is 0.93

get_value(item= NC(=O)N1CCc2ccccc21 , readout=inhibition) returns -6.77

Record Nc1ccc2nn(-c3ccc(Cl)cc3)nc2c1 . Reported inhibition: -10.3
